Listed below: GI50 values for each entry.
System: SN12C
Assay: NCI tumour cell line growth inhibition, 48 h
Activity calls are given as the source filed them. Rule as the data show it: active = GI50 up to about 1.1 µM and inactive = higher.

[
  {
    "COMPOUND": "COc1ccc(-c2ncn(C[Si](C)(C)C)c2-c2ccc(OC)cc2)cc1",
    "SYSTEM NAME": "SN12C",
    "MEASURE": "GI50",
    "RECORDED VALUE": "11 µM (inactive)"
  },
  {
    "COMPOUND": "O=C(CSCC(=O)N/N=C/c1cc(I)cc(I)c1O)N/N=C/c1cc(I)cc(I)c1O",
    "SYSTEM NAME": "SN12C",
    "MEASURE": "GI50",
    "RECORDED VALUE": "23.2 µM (inactive)"
  },
  {
    "COMPOUND": "N=C(N)SCc1ccc2c(c1)S(=O)(=O)c1ccccc1O2",
    "SYSTEM NAME": "SN12C",
    "MEASURE": "GI50",
    "RECORDED VALUE": "37.5 µM (inactive)"
  },
  {
    "COMPOUND": "O=C(NC1CCCC1=O)c1ccccc1 (configuration not stated)",
    "SYSTEM NAME": "SN12C",
    "MEASURE": "GI50",
    "RECORDED VALUE": "> 100 µM (inactive)"
  },
  {
    "COMPOUND": "Cc1ccc(NC(=O)/C(=N/NC(=O)C[N+](C)(C)C)c2nc3ccccc3nc2O)cc1",
    "SYSTEM NAME": "SN12C",
    "MEASURE": "GI50",
    "RECORDED VALUE": "> 100 µM (inactive)"
  },
  {
    "COMPOUND": "Cc1cc2nc3n(c2cc1C)C(c1c(F)cccc1F)SC3 (configuration not stated)",
    "SYSTEM NAME": "SN12C",
    "MEASURE": "GI50",
    "RECORDED VALUE": "19.5 µM (inactive)"
  }
]

Below: the item to evaluate.
Challenge: Request - read-out GI50 | tested on SN12C | compound Cc1cc2c(cc1C)C(=O)C1(C2)Cc2cc3c(cc2C1=O)CCC3 (configuration not stated)
Response given: > 100 µM (inactive)

###

Listed below: GI50 values for each entry.
System: HL-60
Assay: NCI tumour cell line growth inhibition, 48 h
Calls of active or inactive are those of the source. Cut-off read from the data, not from the text of the source: active = GI50 up to about 1.1 µM and inactive = higher.

Consider the following illustrative entries.
[
  {
    "MOLECULE": "CN1C2(c3ccccc3)c3c(-c4ccccc4)sc(-c4ccccc4)c3C1(c1ccccc1)C1C(=O)N(c3ccccc3)C(=O)C12 (stereo not given)",
    "GI50": "> 100 µM (inactive)"
  },
  {
    "MOLECULE": "COc1cc(Br)cc2cc(C3=CSC4=NCCN34)c(=O)oc12",
    "GI50": "29.4 µM (inactive)"
  },
  {
    "MOLECULE": "CC1CC(NC2CCCCC2)=Nc2ccccc2N1Cc1ccccc1 (stereo not given)",
    "GI50": "4.51 µM (inactive)"
  },
  {
    "MOLECULE": "N#CC12C(=O)N=C(N)C1(C#N)C(c1ccco1)NC1=C2CCCC1 (stereo not given)",
    "GI50": "> 100 µM (inactive)"
  }
]

Below: the item to evaluate.
Challenge: Need GI50, item CCCCCCCCCC1(N=[N+]=[N-])C(=O)c2ccccc2N(C)C1=O (stereo not given)
Response given: > 100 µM (inactive)

###

Listed below: GI50 values for each entry.
Test system: UO-31
Assay: NCI tumour cell line growth inhibition, 48 h
The source made the active and inactive calls. Rule as the data show it: active = GI50 up to about 1.1 µM and inactive = higher.

[
  {
    "MOLECULE": "COc1cc(S(=O)(=O)Nc2nc(-c3ccc(N4C(=O)/C(=C/C=C/c5ccccc5)N=C4c4ccccc4)cc3)cs2)ccc1Cl",
    "GI50": "> 100 µM (inactive)"
  },
  {
    "MOLECULE": "CCOC(=O)C(=O)Nc1c(N(CC)CC)n2ccccc2nc1=O",
    "GI50": "> 100 µM (inactive)"
  },
  {
    "MOLECULE": "O=C(/C=C/c1ccc(Cl)cc1)Oc1ccc(/C=C2\\CCCCC2=O)cc1",
    "GI50": "> 100 µM (inactive)"
  },
  {
    "MOLECULE": "CC(Oc1ccc2cc(C(=O)c3ccccc3)c(=O)oc2c1)C(=O)O (centres undefined)",
    "GI50": "> 100 µM (inactive)"
  }
]

Challenge: Need GI50, item CC(=O)O[C@H]1C(=O)[C@@]2(C)C(C(OC(=O)c3ccccc3)[C@]3(O)CC(OC(=O)C(O)C(NC(=O)c4ccccc4)c4ccc(C)cc4)C(C)=C1C3(C)C)[C@]1(OC(C)=O)CO[C@@H]1C[C@@H]2O (some centres undefined)
Response given: 2 µM (inactive)

Challenge: Can you handle Cc1cccc(/C=C2\CCCc3ccccc3C2=O)c1 next?
Response given: 26.8 µM (inactive)

Challenge: Can you handle O=[As](O)(O)c1ccc(Cc2ccc([As](=O)(O)O)cc2)cc1 next?
Response given: 1.24 µM (inactive)

Challenge: Can you handle CC1(C)OC(CCC#N)CN1C(=O)OCc1ccccc1 (centres undefined) next?
Response given: > 100 µM (inactive)

Challenge: Can you handle O=C1OC(c2ccc(Cl)cc2)=N/C1=C\c1ccccc1 next?
Response given: > 100 µM (inactive)

###

Test system: EKVX
Test: NCI tumour cell line growth inhibition, 48 h
The source made the active and inactive calls. Rule as the data show it: active = GI50 up to about 1.1 µM and inactive = higher.
MEASURE: GI50

Challenge: Need GI50, item O=[As](O)(O)c1ccc(Cc2ccc([As](=O)(O)O)cc2)cc1
Response given: 1.13 µM (inactive)

Challenge: Can you handle CNC(=S)N/N=C(\C)c1cc(OC)ccc1O next?
Response given: > 100 µM (inactive)

Challenge: Can you handle CN(C)/C=N\c1cc[nH]c(=O)n1 next?
Response given: > 100 µM (inactive)

Challenge: Can you handle CC(=O)O[C@H]1CCC2[C@@H]3CCC4NC(=O)C(C#N)C[C@]4(C)C3CC[C@@]21C (some centres not stated) next?
Response given: 8.17 µM (inactive)

Challenge: Can you handle CN1C(=O)C(=O)N2c3ccc(Cl)cc3C3(c4ccccc4)N=CC12O3 (configuration not stated) next?
Response given: 8.87 µM (inactive)

###

Test system: OVCAR-5
Assay: NCI tumour cell line growth inhibition, 48 h
Calls of active or inactive are those of the source. No stated cut-off is given here; in the data, active = GI50 up to about 1.1 µM and inactive = higher.
Answer with one of the outcomes given here: Yes (active), No (inactive)

Sample answers from the record:
[
  {
    "COMPOUND": "CCCCc1ccc(Nc2nc(Cl)c3ncn(C4CC(Oc5ccc(C)cc5)C(COc5ccc(C)cc5)O4)c3n2)cc1 (stereo unspecified)",
    "QUALITATIVE LABEL": "No"
  },
  {
    "COMPOUND": "BrCC(Br)(c1ccccc1)c1ccccc1-c1cc(-c2ccccc2)cc(-c2ccccc2)n1 (stereo unspecified)",
    "QUALITATIVE LABEL": "No"
  },
  {
    "COMPOUND": "O=C(O)Cc1cccc2c1OC(c1ccccc1)C(C(=O)c1ccccc1)C2=O (stereo unspecified)",
    "QUALITATIVE LABEL": "No"
  }
]

Challenge: Fill in: this test's call for Cc1cc2c(c(C(N)=O)c1C)-c1cccc(Cl)c1C2=O is ___
Response given: No

Challenge: Can you handle Cc1ccc(NC(=O)/C(=N/NC(=O)C[N+](C)(C)C)c2nc3ccccc3nc2O)cc1 next?
Response given: No

Challenge: Can you handle CCN(CC)C(=S)N/N=C/c1ccccn1 next?
Response given: Yes

Challenge: Can you handle O=c1[nH]nc(Cc2ccccc2)n1C1CCCC1 next?
Response given: No

###

System: HOP-92
Assay: NCI tumour cell line growth inhibition, 48 h
Active and inactive are the calls of the source. Rule as the data show it: active = GI50 up to about 1.1 µM and inactive = higher.
MEASURE: GI50

Challenge: Request - read-out GI50 | tested on HOP-92 | compound NN/C(=N\S(=O)(=O)c1cccc2nsnc12)Nc1ccc(Cl)cc1
Response given: > 100 µM (inactive)

Challenge: Can you handle COC(=O)C(=O)C(C(C)=O)C(=O)C(=O)Nc1ccc(C)cc1C (stereo unspecified) next?
Response given: > 100 µM (inactive)

Challenge: Can you handle CN1C(c2ccccc2)CC(O)CC1c1ccccc1 (stereo unspecified) next?
Response given: > 100 µM (inactive)

Challenge: Can you handle O=c1c2cc(Cl)ccc2[nH]c2cc(O)cc(O)c12 next?
Response given: > 10 µM (inactive)

###

Test system: SNB-75
Assay: NCI tumour cell line growth inhibition, 48 h
Calls of active or inactive are those of the source. Cut-off read from the data, not from the text of the source: active = GI50 up to about 1.1 µM and inactive = higher.
MEASURE: GI50

Consider the following illustrative entries.
[
  {
    "COMPOUND": "Cc1cc2nnn(C3CCCCO3)c2cc1C (stereo not drawn)",
    "MEASURE": "GI50",
    "RECORDED VALUE": "88.1 µM (inactive)"
  },
  {
    "COMPOUND": "CCCCCCCCCCCCCCCCCC(=O)OCC(COC(=O)CCCN)OC(=O)CCCN (stereo not drawn)",
    "MEASURE": "GI50",
    "RECORDED VALUE": "> 100 µM (inactive)"
  }
]

Challenge: Need GI50, item CN(C)/C=N\c1cc[nH]c(=O)n1
Response given: > 100 µM (inactive)
